Notes on MIC obtained with Prot. vulg..
Expressed in µg/mL, but write only the number.

In: Name the reported MIC value associated with the molecule CC(=O)N[C@@H](C(=O)Nc1ccc(-c2ncc(C(=O)N[C@@H](C(=O)N[C@@H]3C(=O)N4C(C(=O)O)=C(COC(C)=O)CS[C@H]34)c3ccccc3)c(O)n2)cc1)C(C)C
Out: 25

In: Name the reported MIC value associated with the molecule CC(=O)NCCCC(=O)Nc1ccc(-c2ncc(C(=O)N[C@@H](C(=O)NC3C(=O)N4C(C(=O)O)=C(CSc5nnnn5C)CSC34)c3ccccc3)c(O)n2)cc1 (stereo partly shown)
Out: 12.5

In: Name the reported MIC value associated with the molecule CC(=O)N[C@H](C)C(=O)Nc1ccc(-c2ncc(C(=O)N[C@@H](C(=O)NC3C(=O)N4C(C(=O)O)=C(CSc5nnnn5C)CSC34)c3ccc(O)cc3)c(O)n2)cc1 (stereo partly shown)
Out: 6.3

In: Name the reported MIC value associated with the molecule CC(=O)NC(C)C(=O)Nc1ccc(-c2ncc(C(=O)N[C@@H](C(=O)NC3C(=O)N4C(C(=O)O)=C(CSc5nnnn5CC(=O)O)CSC34)c3ccccc3)c(O)n2)cc1 (mixture of isomers)
Out: 3.1

In: Name the reported MIC value associated with the molecule CC(=O)N[C@@H](C)C(=O)Nc1ccc(-c2ncc(C(=O)N[C@@H](C(=O)N[C@@H]3C(=O)N4C(C(=O)O)=C(COC(C)=O)CS[C@H]34)c3ccccc3)c(O)n2)cc1
Out: 25

In: Name the reported MIC value associated with the molecule CC(=O)N[C@H](C)C(=O)Nc1ccc(-c2ncc(C(=O)N[C@@H](C(=O)NC3C(=O)N4C(C(=O)O)=C(CSc5nnnn5C)CSC34)c3ccccc3)c(O)n2)cc1 (stereo partly shown)
Out: 12.5
